Provide the recorded TGI for the entries that follow.
System: HCT-15 colon
Assay: NCI tumour cell line growth inhibition, 48 h

Requested field: TGI. Item: COc1cc2c(OC)cc1CSCc1sc(C)c(c1Br)CSC2 > 100 µM

Requested field: TGI. Item: O=C1NC(=NCCc2cccc(Cl)c2)S/C1=C\c1ccc2ncccc2c1 > 25 µM

Requested field: TGI. Item: CC(C)CC(NC(=O)C(CI)Cc1ccccc1)C(=O)Nc1ccccc1 (stereo not given) > 100 µM

Requested field: TGI. Item: CCn1c(=O)c2c(=O)c3c4c(oc3oc2c2ccccc21)C(=O)c1ccccc1C4=O > 100 µM

Requested field: TGI. Item: [N-]=[N+]=Nc1cc(=O)n2c3c(cccc13)CCC2 > 100 µM

Requested field: TGI. Item: O=S(=O)(Nc1ccc(F)cc1F)c1ccc(-c2cnc(C3CC3)o2)cc1 46.7 µM

Requested field: TGI. Item: O=P1(c2ccccc2)CCCCC1 > 100 µM

Requested field: TGI. Item: COC1=CC2C(c3cc4ccccc4n3S(=O)(=O)c3ccccc3)CC1CN2C(=O)OCc1ccccc1 (stereo not given) > 100 µM

Requested field: TGI. Item: CCN1C(=O)N(CC)C2C1NN=c1s/c(=C3\C(=O)N(CC(C)(C)C)c4ccccc43)c(=O)n12 (stereo not given) 18.4 µM

Requested field: TGI. Item: COc1c(OC(C)=O)c(OC(C)=O)cc2c1-c1ccc(SC)c(=O)cc1C(NC(C)=O)CC2 (stereo not given) > 97.5 µM

###

System: MCF7 breast
Assay: NCI tumour cell line growth inhibition, 48 h
Provide the recorded GI50 for the entries that follow.

Reported GI50 for MCF7 breast, given C#COc1cccc(Nc2c(C#N)cnc3ncc(NC(=O)CCl)cc23)c1 ? 12800 nM

Reported GI50 for MCF7 breast, given O=C1c2ccccc2-c2c1c1ccccc1c(=O)n2CCCCl ? 2180 nM

Reported GI50 for MCF7 breast, given CCCCCOc1ccc(/C=N/Nc2cc(C)nc3ccc(Br)cc23)cc1 ? 1710 nM

Reported GI50 for MCF7 breast, given CSc1ccc2c(c1)C(=O)c1c-2n(CCCBr)c(=O)c2cc([N+](=O)[O-])ccc12 ? 1580 nM

Reported GI50 for MCF7 breast, given OCCCNc1nccc(-c2c(-c3ccc(F)cc3)nn3cc(C(F)(F)F)ccc23)n1 ? 15100 nM

###

Provide the recorded TGI for the entries that follow.
System: PC-3 prostate
Experiment: NCI tumour cell line growth inhibition, 48 h

Reported TGI for PC-3 prostate, given CCOc1ccncc1[N+](=O)[O-] ? > 100 µM

Reported TGI for PC-3 prostate, given CCCCCCOc1ccc(Nc2c(O)c3c(c(O)c2Cl)C(=O)C=CC3=O)cc1 ? > 10 µM

Reported TGI for PC-3 prostate, given CCOC(=O)CO/N=C1/C(c2c(O)[nH]c3ccccc23)=Nc2ccccc21 ? > 100 µM

Reported TGI for PC-3 prostate, given OCc1ccn2c1[C@@H](O)CC2 ? > 100 µM

Reported TGI for PC-3 prostate, given O=C(CCc1cc(O)ccc1O)OCCc1ccccc1 ? 18.5 µM

Reported TGI for PC-3 prostate, given Cc1c(C)n(-c2ccccc2)c2nc(S(C)(=O)=O)nc(S(C)(=O)=O)c12 ? 10.2 µM

Reported TGI for PC-3 prostate, given Cc1[nH]c(/C=C2\C(=O)Nc3ccccc32)c(C)c1CCC(=O)O ? > 100 µM

Reported TGI for PC-3 prostate, given COc1ccc(O)c(C(=O)c2ccc(C(=O)N[C@H]3CCCNC[C@@H]3NC(=O)c3ccncc3)cc2)c1F ? > 25 µM

Reported TGI for PC-3 prostate, given Cc1nc2ccc(NC(=S)Nc3ccccc3)cc2c(=O)n1-c1ccccc1 ? > 100 µM

Reported TGI for PC-3 prostate, given CC(O)CCCCC(O)CCC[C@H](O)[C@H]1CCC([C@H]2CCC([C@@H](O)CCCCCCCCCCCCC3=C[C@H](C)OC3=O)O2)O1 (stereo not given in full) ? 21.2 µM

###

Tested on: NCI-H23 lung
Experiment: NCI tumour cell line growth inhibition, 48 h
Provide the recorded TGI for the entries that follow.

Requested field: TGI. Item: O=C(Oc1ccccc1)N1c2ccccc2[C@@]23O[C@]24CCC[C@H]3C#C/C=C\C#C[C@H]14 28.7 µM

Requested field: TGI. Item: CN(C)CCNC(=O)c1ccc2nc3c(nc2c1)C(=O)c1ccccc1-3 > 100 µM

Requested field: TGI. Item: O=CN1CCN(CC(O)CN2CCCCC2)CC1 (stereo unspecified) > 100 µM

Requested field: TGI. Item: COC(=O)/C=C1\CCC(C)O1 (stereo unspecified) > 100 µM

Requested field: TGI. Item: S=C1SSC2N=CC=CC12 (stereo unspecified) > 100 µM

Requested field: TGI. Item: O[C@H](c1cc(C(F)(F)F)nc2c(C(F)(F)F)cccc12)[C@@H]1CCCCN1 16.6 µM

###

Tested on: IGROV1 ovarian
Assay: NCI tumour cell line growth inhibition, 48 h
testReadout: TGI

Requested field: TGI. Item: O=C1c2cccc3cccc(c23)C2NCCCN12 (stereo not drawn) > 100 µM

Requested field: TGI. Item: COC(=O)/C=C/c1c(CC=C(C)C)ncn1C > 100 µM

Requested field: TGI. Item: CCCCCC(=O)CCCCCCCC(O)CC(=O)OCC (stereo not drawn) > 100 µM

Requested field: TGI. Item: COC(=O)[C@H]1C=C[C@@H](C)n2c(=O)c3cc4ccccc4cc3c(=O)n21 > 100 µM

Requested field: TGI. Item: Cc1cccc(C)c1NC(=O)C(=O)C(C(=O)c1ccccc1-c1ccccc1)C1OC(=O)c2ccccc21 (stereo not drawn) 64.1 µM

Requested field: TGI. Item: COc1cccc2cc(C(=O)O)c(=O)oc12 > 100 µM

Requested field: TGI. Item: C=C1C(=O)O[C@H]2[C@H]1CC/C(COC(=O)/C=C\C(=O)NCc1ccc(Cn3c(=O)sn(CCCC)c3=O)cc1)=C\CC[C@@]1(C)O[C@@H]21 1.73 µM

Requested field: TGI. Item: CCOc1ccncc1[N+](=O)[O-] > 100 µM

Requested field: TGI. Item: CCCN1CN(C(C(=O)N[C@@H]2C(=O)N3C2SC(C)(C)C3C(=O)O)c2ccc(O)cc2)CSC1=S (stereo partly drawn) > 100 µM

Requested field: TGI. Item: Cc1nn(C(=O)Cc2ccccc2)c2c1C(c1ccc(Cl)cc1)SC(N)=N2 (stereo not drawn) > 100 µM

Requested field: TGI. Item: C/C(=N/NC(=S)Nc1ccc(Cl)cc1)c1cccc(/C(C)=N\NC(=S)Nc2ccc(Cl)cc2)n1 > 100 µM

Requested field: TGI. Item: CCOC(=O)C1(C/C=C/CBr)CCc2ccccc2C1=O (stereo not drawn) 26.2 µM

Requested field: TGI. Item: Cc1nc([N+](=O)[O-])cn1CC(=N)N > 100 µM

Requested field: TGI. Item: CCC(C)C1NC(=O)C(NC(=O)c2c3[nH]c4c(C(=O)NC5C(=O)NC(C(C)CC)C(=O)N6CCCC6C(=O)N(C)CC(=O)N(C)C(C(C)C)C(=O)OC5C)ccc(C)c4oc-3c(C)c(=O)c2=O)C(C)OC(=O)C(C(C)C)N(C)C(=O)CN(C)C(=O)C2CCCN2C1=O (stereo not drawn) > 100 µM

Requested field: TGI. Item: CC(C)N(CCn1c2c3ccccc3ccc2c2oc(=O)c3ccccc3c21)C(C)C > 100 µM

Requested field: TGI. Item: CC1CC[C@@]2(OC1)OC1C[C@H]3[C@@H]4CC[C@H]5CC(OC6OC(CO)C(O)C(OC7OC(CO)C(OC8OC(CO)C(O)C(OC9OC(CO)C(O)C(O)C9O)C8OC8OC(CO)C(O)C(O)C8O)C(O)C7O)C6O)[C@H](O)CC5(C)[C@H]4CCC3(C)C1[C@@H]2C (stereo partly drawn) 4.59 µM

Requested field: TGI. Item: O=C(CCc1cc(O)ccc1O)OCCc1ccccc1 22.3 µM

Requested field: TGI. Item: COC(=O)c1ccccc1Nc1nc(-c2cccs2)nc2cc(OC)c(OC)cc12 74.7 µM

###

Provide the recorded TGI for the entries that follow.
Tested on: NCI/ADR-RES ovarian
Assay: NCI tumour cell line growth inhibition, 48 h

Requested field: TGI. Item: COc1c(OC(C)=O)c(OC(C)=O)cc2c1-c1ccc(SC)c(=O)cc1C(NC(C)=O)CC2 (centres undefined) > 100 µM

Requested field: TGI. Item: CCOC(=O)/C=C/[C@H](O[Si](CC)(CC)CC)C(C)(C)C > 100 µM

Requested field: TGI. Item: C=CC1C(OC2OC(CO)C(O)C(O)C2O)OC=C(C(=O)OC)C1CC1CC(=O)CC(CCc2ccc(O)cc2)O1 (centres undefined) > 100 µM

Requested field: TGI. Item: CCCCCC(=O)CCCCCCCC(O)CC(=O)OCC (centres undefined) > 100 µM

Requested field: TGI. Item: CCOC(=O)c1c(NC(=O)OC)c(C#N)c2n1CCCCC2 > 100 µM

Requested field: TGI. Item: CCC(=O)O[C@H]1CC[C@H]2[C@@H]3CCC4=C/C(=N/OC(=O)c5cccc6c(=O)c7ccccc7[nH]c56)CC[C@]4(C)[C@H]3CC[C@]12C > 100 µM

Requested field: TGI. Item: COc1cccc2cc(C(=O)O)c(=O)oc12 > 100 µM

Requested field: TGI. Item: Cc1nc2sc3c(c2c(=O)[nH]1)CCCC3 > 100 µM

Requested field: TGI. Item: CCCOc1ccc2sc(NC(=O)OC)nc2c1 > 47.5 µM
